Tgt: 72 kDa type IV collagenase (Homo sapiens)
Sequence (P08253 whole entry): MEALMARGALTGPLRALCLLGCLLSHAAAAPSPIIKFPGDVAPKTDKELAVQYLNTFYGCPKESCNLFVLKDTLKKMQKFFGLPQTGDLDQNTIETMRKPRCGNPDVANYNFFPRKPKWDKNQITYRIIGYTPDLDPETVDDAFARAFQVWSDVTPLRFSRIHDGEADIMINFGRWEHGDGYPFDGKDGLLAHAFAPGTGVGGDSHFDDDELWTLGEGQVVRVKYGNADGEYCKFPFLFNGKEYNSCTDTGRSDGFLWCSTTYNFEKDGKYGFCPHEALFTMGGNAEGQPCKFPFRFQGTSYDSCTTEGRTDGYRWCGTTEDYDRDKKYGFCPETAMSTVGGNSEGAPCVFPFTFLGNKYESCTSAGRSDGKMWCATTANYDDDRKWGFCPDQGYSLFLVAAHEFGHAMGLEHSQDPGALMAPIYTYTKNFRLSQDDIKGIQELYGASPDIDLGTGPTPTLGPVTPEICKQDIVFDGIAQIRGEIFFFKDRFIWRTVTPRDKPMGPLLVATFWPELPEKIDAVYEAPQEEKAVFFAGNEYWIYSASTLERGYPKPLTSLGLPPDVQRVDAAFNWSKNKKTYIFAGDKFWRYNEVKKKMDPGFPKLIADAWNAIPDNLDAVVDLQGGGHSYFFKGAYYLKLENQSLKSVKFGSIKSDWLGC
Quantity: IC50 (nM)

Record smiles	Tgt	Val
COC(=O)[C@H](CCSC)NC(=O)CN1C(=O)CC[C@H](NC(=O)c2cc(OC)c(OC)c(OC)c2)C1=O	72 kDa type IV collagenase (Homo sapiens)	1200
COC(=O)[C@@H](NC(=O)CN1C(=O)CC[C@H](NC(=O)c2cc(OC)c(OC)c(OC)c2)C1=O)C(C)C	72 kDa type IV collagenase (Homo sapiens)	1000
COC(=O)[C@H](CS)NC(=O)CN1C(=O)CC[C@H](NC(=O)c2cc(OC)c(OC)c(OC)c2)C1=O	72 kDa type IV collagenase (Homo sapiens)	1700
COC(=O)[C@H](CCCNC(N)=N[N+](=O)[O-])NC(=O)CN1C(=O)CC[C@H](NC(=O)c2cc(OC)c(OC)c(OC)c2)C1=O	72 kDa type IV collagenase (Homo sapiens)	300
COc1cc(C(=O)N[C@H]2CCC(=O)N(CC(=O)O)C2=O)cc(OC)c1OC	72 kDa type IV collagenase (Homo sapiens)	4000

---

Below are IC50 values recorded for UniProt P08253.

Record smiles	IC50, nM
CC(C)C[C@H](NC(=O)[C@@H](O)[C@H](N)Cc1ccccc1)C(=O)O	3400
COC(=O)[C@@H](NC(=O)CN1C(=O)CC[C@H](NC(=O)c2cc(OC)c(OC)c(OC)c2)C1=O)[C@@H](C)O	1800
COC(=O)CN1C(=O)CC[C@H](NC(=O)c2cc(OC)c(OC)c(OC)c2)C1=O	10600
COC(=O)[C@H](C)NC(=O)CN1C(=O)CC[C@H](NC(=O)c2cc(OC)c(OC)c(OC)c2)C1=O	1200

---

Recorded measurements of pIC50, one per entry
Tgt: Aminopeptidase N (Sus scrofa, UniProt P15145)
Sequence (P15145 whole entry): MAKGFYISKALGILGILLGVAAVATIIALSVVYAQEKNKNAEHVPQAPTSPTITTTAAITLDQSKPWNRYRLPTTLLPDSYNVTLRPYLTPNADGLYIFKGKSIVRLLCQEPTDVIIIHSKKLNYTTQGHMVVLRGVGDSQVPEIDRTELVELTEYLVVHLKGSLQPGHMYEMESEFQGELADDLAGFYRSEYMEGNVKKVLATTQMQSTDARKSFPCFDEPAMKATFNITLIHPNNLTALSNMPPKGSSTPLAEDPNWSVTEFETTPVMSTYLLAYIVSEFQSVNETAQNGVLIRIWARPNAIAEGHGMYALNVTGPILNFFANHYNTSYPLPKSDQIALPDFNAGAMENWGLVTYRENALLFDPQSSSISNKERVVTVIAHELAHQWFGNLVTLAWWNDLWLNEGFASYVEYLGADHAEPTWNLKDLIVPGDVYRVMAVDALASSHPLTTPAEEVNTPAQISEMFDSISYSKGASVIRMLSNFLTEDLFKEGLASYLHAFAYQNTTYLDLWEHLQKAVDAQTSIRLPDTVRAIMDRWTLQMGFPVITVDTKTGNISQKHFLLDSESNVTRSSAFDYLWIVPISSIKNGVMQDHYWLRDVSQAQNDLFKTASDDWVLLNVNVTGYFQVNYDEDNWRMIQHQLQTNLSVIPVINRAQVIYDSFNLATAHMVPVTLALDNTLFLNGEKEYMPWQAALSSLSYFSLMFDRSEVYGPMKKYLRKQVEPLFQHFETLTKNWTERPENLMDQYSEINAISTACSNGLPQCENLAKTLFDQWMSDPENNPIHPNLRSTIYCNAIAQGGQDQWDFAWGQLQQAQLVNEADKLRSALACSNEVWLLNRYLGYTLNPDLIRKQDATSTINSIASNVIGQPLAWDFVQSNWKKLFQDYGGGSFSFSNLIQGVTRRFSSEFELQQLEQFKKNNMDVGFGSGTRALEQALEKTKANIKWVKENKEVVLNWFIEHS
Assay details: Inhibition of pig kidney microsomal aminopeptidase assessed as liberation of p-nitroanilide
pIC50: −log10 of the molar value.

Record smiles	pIC50
COC(=O)[C@@H](NC(=O)CN1C(=O)CC[C@H](NC(=O)c2cc(OC)c(OC)c(OC)c2)C1=O)[C@@H](C)O	4.28
COC(=O)[C@H](CS)NC(=O)CN1C(=O)CC[C@H](NC(=O)c2cc(OC)c(OC)c(OC)c2)C1=O	4.30
COC(=O)[C@H](CC(C)C)NC(=O)CN1C(=O)CC[C@H](NC(=O)c2cc(OC)c(OC)c(OC)c2)C1=O	4.34
COC(=O)CCNC(=O)CN1C(=O)CC[C@H](NC(=O)c2cc(OC)c(OC)c(OC)c2)C1=O	4.27
CC[C@H](C)[C@H](NC(=O)CN1C(=O)CC[C@H](NC(=O)c2cc(OC)c(OC)c(OC)c2)C1=O)C(=O)OC	4.31
COC(=O)[C@H](CCCNC(N)=N[N+](=O)[O-])NC(=O)CN1C(=O)CC[C@H](NC(=O)c2cc(OC)c(OC)c(OC)c2)C1=O	4.38
COC(=O)CNC(=O)CN1C(=O)CC[C@H](NC(=O)c2cc(OC)c(OC)c(OC)c2)C1=O	4.26
COC(=O)[C@H](CCCCNC(=O)c1ccccc1)NC(=O)CN1C(=O)CC[C@H](NC(=O)c2cc(OC)c(OC)c(OC)c2)C1=O	4.42
COC(=O)[C@H](Cc1cnc[nH]1)NC(=O)CN1C(=O)CC[C@H](NC(=O)c2cc(OC)c(OC)c(OC)c2)C1=O	5.28
COC(=O)[C@H](Cc1ccc(O)cc1)NC(=O)CN1C(=O)CC[C@H](NC(=O)c2cc(OC)c(OC)c(OC)c2)C1=O	4.35
